- run_description: amyloid nucleation score (Sup35N fusion, yeast selection) (log enrichment); library NNK1; higher = more nucleation; inactive = no reads after selection;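 also: zero at mode of non-aggregating sequences after 7 days selection at 30°C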

[
  {
    "polymer_sequence": "YGHLDPFTKLWSLWGIIMNW",
    "amyloid nucleation score": "inactive"
  },
  {
    "polymer_sequence": "LWMHAGSGRIKLETGCGAKC",
    "amyloid nucleation score": "inactive"
  },
  {
    "polymer_sequence": "EPVYISDWWTACEVADHVSL",
    "amyloid nucleation score": "inactive"
  }
]

----------
- run_description: amyloid nucleation score (Sup35N fusion, yeast selection) (log enrichment); library NNK2; higher = more nucleation; inactive = no reads after selection
// label = Yes if amyloid nucleation score is not less than 0.04, otherwise No

# example entries with known answers
[
  {
    "substance": "ADATGVECPIYDRRRVNRTN",
    "assigned_label": "No"
  },
  {
    "substance": "QYYVGYLT",
    "assigned_label": "No"
  },
  {
    "substance": "RCGEVRYPCTDVYILGFRSV",
    "assigned_label": "No"
  },
  {
    "substance": "TCRHRLHVSFVYDVLRQIVT",
    "assigned_label": "Yes"
  },
  {
    "substance": "RWCSVGNLVRSITR",
    "assigned_label": "Yes"
  }
]

Enquiry: Dear colleague, could you confirm whether "SVNASGT" has amyloid nucleation score at or above 0.04?
Return: No

Enquiry: Kindly determine if amyloid nucleation score recorded for "TCVKASNRG" is above or exactly 0.04.
Return: No

----------
- run_description: amyloid nucleation score (Sup35N fusion, yeast selection) (log enrichment); library NNK2; higher = more nucleation; inactive = no reads after selection
quantity_measured: amyloid nucleation score

[
  {
    "substance": "ITIPVNLPLHFLYSGQYHVA",
    "amyloid nucleation score": -0.307
  },
  {
    "substance": "RLWTCLEVLKFSGGLIASMY",
    "amyloid nucleation score": -1.05
  },
  {
    "substance": "TRPLFTFRAMVDTRIHVFPM",
    "amyloid nucleation score": 0.201
  }
]

Enquiry: Indicate its recorded amyloid nucleation score; the substance in question is "WLLNYYRGGVWLGLWTRKE"
Return: -1.3

Enquiry: Please list amyloid nucleation score recorded for the substance "AYPVES"
Return: 1.19

Enquiry: Give a short answer stating reported amyloid nucleation score for "GVCSGFPFVRFRNIYIRRLA" .
Return: 3.22

----------
- run_description: amyloid nucleation score (Sup35N fusion, yeast selection) (log enrichment); library NNK2; higher = more nucleation; inactive = no reads after selection
quantity_measured: amyloid nucleation score

Here's what some known entries look like.
[
  {
    "substance": "SFCCFFRSSLVFNFLVYISG",
    "result": 0.081
  },
  {
    "substance": "FSNISSSMKNKSVRGCECGR",
    "result": -1.04
  },
  {
    "substance": "YDSFMVGVCYAG",
    "result": -1.42
  },
  {
    "substance": "VGDCITAWRSWNNCFVGYGP",
    "result": 3.2
  },
  {
    "substance": "GMVEAR",
    "result": 0.095
  },
  {
    "substance": "FYPWDSVCEFSLGCMSNPQA",
    "result": 0.158
  },
  {
    "substance": "VRNSSV",
    "result": "inactive"
  },
  {
    "substance": "NVGSVKHGS",
    "result": 0.531
  }
]

Enquiry: For the substance "CVIGCSGWKRIFIISILYRV" , give its reported amyloid nucleation score.
Return: -0.562

Enquiry: Name the recorded amyloid nucleation score of the substance listed here: "PSGPSHIYGWYDSFHNCSYN"
Return: -0.369

Enquiry: State its amyloid nucleation score for this substance: "WTWVLMNIL"
Return: -1.76

Enquiry: Give the reported value of amyloid nucleation score for this record: "WYVFACLVELYNCGPHGAID"
Return: inactive

Enquiry: Tell me amyloid nucleation score reported for "HQRLTRVLYWKVDIGQVCGI"
Return: 4.99

Enquiry: Using known records, supply amyloid nucleation score for "ATDADGRLISY"
Return: 1.31

Enquiry: Determine from records and report amyloid nucleation score for "SYDDGRFGVGCCFIEGYRI"
Return: -1.41

Enquiry: Annotate the substance "QNIKIW" with its measured amyloid nucleation score.
Return: -1.02

Enquiry: Write down amyloid nucleation score measured for item "DTDDVNHYSFTPRALSSGFI"
Return: inactive

Enquiry: Give the reported value of amyloid nucleation score for this record: "IQKLRVRHDMISYTSEMSVN"
Return: -0.218

Enquiry: For the substance "RLRSILLSWCCRFGGSQLRA" , report amyloid nucleation score.
Return: 0.581

Enquiry: Please give the documented amyloid nucleation score of "VVRYLYRWTTVVGLHGGSHN"
Return: -0.786

Enquiry: Quick one: give measured amyloid nucleation score for "YREHQKVRFSSLISSIGVLM"
Return: -0.004

Enquiry: # return recorded amyloid nucleation score for input "LYQMCIRLI"
Return: -0.657

Enquiry: Give a short answer stating reported amyloid nucleation score for "IANYSFELFII" .
Return: 2.87

Enquiry: Look up and report measured amyloid nucleation score for this entry: "LWNWRACARLG"
Return: 1.25
